test system: iPSC pneumocytes; assay: iPSC pneumocytes cytotoxicity; assay type: cell-based; details: protocol iPSC pneumocytes cytotoxicity; highest measured response of the dose series
PROPERTY NAME: perc_max_measured (%)
Answers are plain numbers, in %.

See these solved cases before continuing.
# MOLECULE, UNIT OF MEASURE, perc_max_measured
measured = [
    ("Cc1ncc(-c2cc3c(N[C@@H](c4ccc5c(c4)OCCO5)C(C)C)ncnc3[nH]2)cn1", "%", 94.665),
    ("CC(C)[C@@H](Nc1ncnc2[nH]c(-c3cnn(CC(N)=O)c3)cc12)c1ccc2c(c1)OCCO2", "%", 102.79),
    ("Cn1ncc(-c2cc3c(N[C@@H](c4ccc5c(c4)OCCO5)C(C)(C)C)ncnc3[nH]2)c1C#N (racemic)", "%", 107.062),
    ("CC(C)[C@@H](Nc1ncnc2[nH]c(-c3cnn(C)n3)cc12)c1ccc2c(c1)OCCO2", "%", 89.766),
    ("CNC(=O)c1cc2c(N[C@@H](c3ccc4c(c3)OCCO4)C(C)C)ncnc2[nH]1", "%", 98.804),
    ("CC(C)C(Nc1ncnc2[nH]ccc12)c1ccc2c(c1)NC(=O)CO2 (stereo not drawn)", "%", 98.455),
]

Consider the following items and state reported perc_max_measured for each.
1. CC(C)[C@@H](Nc1ncnc2[nH]c(C(N)=O)cc12)c1ccc2c(c1)OCCO2
2. CC(C)[C@@H](Nc1ncnc2[nH]c(-c3cnn(C)c3C#N)cc12)c1ccc2c(n1)OCCO2
3. CCNC(=O)c1cc2c(NC(c3ccc4c(c3)OCCO4)C(C)C)ncnc2[nH]1 (stereo not drawn)

[107.376, 95.683, 91.985]

----------
test: Permeability Papp (AB) MDR1/MDCKII; conditions: MDR1-MDCKII, recovery B to A, with inhibitor Verapamil
So I've got a bunch of compounds here, and I need their perc_recovery_b_to_a_inhibitor_mean values.
One number for each entry, in %.

Consider the reported perc_recovery_b_to_a_inhibitor_mean for these compounds:
# COMPOUND, perc_recovery_b_to_a_inhibitor_mean, %
measured = [
    ("CC(C)[C@@H](Nc1ncnc2[nH]c(-c3cnn(CC(N)=O)c3)cc12)c1ccc2c(n1)OCCO2 (single isomer, unassigned)", 85.3),
    ("CC(C)[C@@H](Nc1ncnc2[nH]c(-c3cnn(C)c3C#N)cc12)c1ccc2c(c1)S(=O)(=O)CCC2 (single isomer, unassigned)", 72.3),
    ("Cc1nn(C)cc1-c1cc2c(NC(c3ccc4c(c3)S(=O)(=O)CCC4)C(C)C)ncnc2[nH]1 (centres unmarked)", 93.0),
    ("CC(C)[C@@H](Nc1ncnc2[nH]c(C(=O)N[C@H]3CCN(C)C3)cc12)c1ccc2c(c1)S(=O)(=O)CCC2 (single isomer, unassigned)", 77.9),
    ("CNCc1cc(-c2cc3c(N[C@@H](c4ccc5c(c4)S(=O)(=O)CCC5)C(C)C)ncnc3[nH]2)co1", 62.0),
    ("CC(C)[C@@H](Nc1ncnc2[nH]c(-c3cnn(C)c3C#N)cc12)c1ccc2c(n1)OCCO2", 88.6),
    ("CNC(=O)c1cc2c(N[C@@H](c3ccc4c(c3)S(=O)(=O)CCC4)C(C)C)ncnc2[nH]1 (single isomer, unassigned)", 86.6),
    ("CC(C)[C@@H](Nc1ncnc2[nH]c(-c3cnn(C)c3)cc12)c1ccc2c(c1)S(=O)(=O)CCC2 (single isomer, unassigned)", 96.9),
    ("CC(C)[C@H](Nc1ncnc2[nH]c(-c3cnn(CC(N)=O)c3)cc12)c1ccc2c(c1)S(=O)(=O)CCC2 (single isomer, unassigned)", 79.8),
    ("CCNC(=O)c1cc2c(N[C@@H](c3ccc4c(c3)S(=O)(=O)CCO4)C(C)C)ncnc2[nH]1 (racemic)", 90.3),
]

Read the next record carefully.
Given CC(C)[C@H](Nc1ncnc2[nH]ccc12)c1ccc2c(c1)S(=O)(=O)CCC2 , respond with its perc_recovery_b_to_a_inhibitor_mean.
86.9

----------
assay: Hepatic microsomal stability, MLM; type: in vitro ADME; details: In vitro mouse liver microsomal stability
Each entry belongs to exactly one class, chosen by where its perc_remaining falls: low-valued: < 10%; mid-valued: ≥ 10% and < 40%; high-valued: ≥ 40%

# COMPOUND, CLASS
measured = [
    ("CC(C)(C)[C@H](Nc1ncnc2[nH]c(-c3cnn(CC(N)=O)c3)cc12)c1ccc2c(n1)OCCO2 (racemic) [ASAP-0008648]", "high-valued"),
    ("C[C@H](C(=O)O)[C@@H](NC(=O)c1ncnc2[nH]ccc12)c1ccc(Br)cc1 [ASAP-0014722]", "high-valued"),
    ("CCNC(=O)c1cc2c(N[C@H](c3ccc4c(c3)S(=O)(=O)CCC4)C(C)C)ncnc2[nH]1 [ASAP-0012325]", "mid-valued"),
    ("CC(C)[C@H](Nc1ncnc2[nH]c(-c3cnn(C)c3C#N)cc12)c1ccc2c(n1)NC(=O)CO2 (single isomer, unassigned) [ASAP-0011177]", "mid-valued"),
    ("CNC(=O)c1c[nH]c2ncnc(N[C@H](c3ccc4c(c3)NC(=O)CO4)C(C)C)c12 (racemic) [ASAP-0008637]", "mid-valued"),
]

Pending compound:
Could you tell me which band CC(C)[C@H](Nc1ncnc2[nH]cc(C(N)=O)c12)c1ccc2c(c1)OCCO2 (racemic) [ASAP-0008399] belongs to?
low-valued

----------
Target: M3 (h) (Homo sapiens)
Construct: purchased Eurofins Cerep (SafetyScreen44), recognised from the panel format
Sequence (P20309 whole entry): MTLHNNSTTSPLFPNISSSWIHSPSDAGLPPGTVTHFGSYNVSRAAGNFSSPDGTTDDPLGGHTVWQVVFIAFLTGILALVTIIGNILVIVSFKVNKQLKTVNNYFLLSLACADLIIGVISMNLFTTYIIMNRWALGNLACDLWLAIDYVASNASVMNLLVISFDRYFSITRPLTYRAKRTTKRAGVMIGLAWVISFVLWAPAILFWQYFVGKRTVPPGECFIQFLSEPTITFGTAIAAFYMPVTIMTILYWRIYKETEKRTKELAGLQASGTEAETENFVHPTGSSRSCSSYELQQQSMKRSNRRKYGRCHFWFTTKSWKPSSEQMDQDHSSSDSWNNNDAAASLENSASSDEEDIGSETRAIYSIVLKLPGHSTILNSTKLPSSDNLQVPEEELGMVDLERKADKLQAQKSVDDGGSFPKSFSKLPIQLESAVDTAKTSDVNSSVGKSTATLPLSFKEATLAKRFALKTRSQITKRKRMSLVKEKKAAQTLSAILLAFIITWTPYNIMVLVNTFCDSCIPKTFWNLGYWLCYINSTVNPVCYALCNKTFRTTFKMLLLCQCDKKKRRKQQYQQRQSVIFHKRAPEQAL
Assay: In vitro CEREP profiling, M3 (h) (antagonist radioligand)
Format: binding
Conditions: test compound concentration 10 uM
Excerpt: Supplement media-1.zip/Safety_Panel_Profile.csv, table | column: perc_inhibition
Please provide measured perc_inhibition (% inhibition of the binding of a ligand specific for each target) for the entries that follow.
Numbers only, in %.

Some molecules with known perc_inhibition (% inhibition of the binding of a ligand specific for each target) results, for comparison:
# CHEMICAL STRING, VALUE MEASURED
data = [
    ("Cn1ncc(-c2cc3c(N[C@@H](c4ccc5c(n4)OCCO5)C(C)(C)C)ncnc3[nH]2)c1C#N", -8),
    ("C[C@H](C(=O)O)[C@@H](NC(=O)c1ncnc2[nH]ccc12)c1ccc(Br)cc1", -9),
    ("CC(C)[C@H](Nc1ncnc2[nH]c(-c3cnn(C)c3C#N)cc12)c1ccc2c(n1)OCCO2", -15),
    ("CC(C)[C@H](Nc1ncnc2[nH]ccc12)c1ccc2c(c1)S(=O)(=O)CCC2", 5),
    ("CNCc1cc(-c2cc3c(N[C@@H](c4ccc5c(c4)S(=O)(=O)CCC5)C(C)C)ncnc3[nH]2)co1", 5),
    ("CC(C)[C@@H](Nc1ncnc2[nH]c(-c3cnn(C)c3C#N)cc12)c1ccc2c(n1)OCCO2", 1),
]

// next entry
Look up perc_inhibition (% inhibition of the binding of a ligand specific for each target) of COc1ccc([C@H](Cc2nnn[nH]2)NC(=O)c2ncnc3[nH]ccc23)cc1 and report it.
-15

----------
assay: Hepatic microsomal stability, MLM; type: in vitro ADME; conditions: liver microsomes; In vitro mouse liver microsomal stability
So I've got a bunch of compounds here, and I need their microsomal CLint values.
Answers are plain numbers, in µL/min/mg.

# COMPOUND, microsomal CLint / µL/min/mg
rows = [
    ("CCNC(=O)c1cc2c(NC(c3ccc4c(c3)OCCO4)C(C)C)ncnc2[nH]1 (stereo not shown)", 88),
    ("CNC(=O)Cn1cc(-c2cc3c(NC(c4ccc5c(c4)OCCO5)C(C)C)ncnc3[nH]2)cn1 (stereo not shown)", 47),
    ("CC(C)C(Nc1ncnc2[nH]c(C(=O)NC3CCN(C)C3)cc12)c1ccc2c(c1)S(=O)(=O)CCC2 (stereo not shown)", 11),
]

Field: next compound
Let me know recorded microsomal CLint for Cc1nn(C)cc1-c1cc2c(NC(c3ccc4c(c3)S(=O)(=O)CCC4)C(C)C)ncnc2[nH]1 (stereo not shown) , thanks.
202

----------
Exercise: for every item that follows, state its recorded perc_inhibition_mean.
biological target: UniProt:P0DTD1; experiment: biochemical; assay type: biochemical; conditions: SARS-CoV-2 nsp3 macrodomain TR-FRET single point; concentration 99.5 uM
Remember to put the unit after the number in your answer.

Answered examples (2):
# COMPOUND, perc_inhibition_mean
rows = [
    ("C[C@@H](NC(=O)c1cnn2ccc(C3CCN(C(=O)c4ccccc4)CC3)cc12)c1cc[nH]n1 [ASAP-0000407]", "-2.773%"),
    ("CC(C)[C@@H](Nc1ncnc2[nH]ccc12)C(F)F [ASAP-0000452]", "91.659%"),
]

Please supply perc_inhibition_mean for each of the following items, keeping them in order.
1. O=C(CCN(Cc1cccc(Cl)c1)C(=O)C1CCC(O)CC1)N1CCNCC1 (centres unmarked) [ASAP-0000401]
2. CC(C)Cn1cc([C@H]2N(c3ncnc4[nH]ccc34)CC23CCOCC3)cn1 [ASAP-0000478]
3. Cc1ccc(C(=O)N(CCC(=O)N2CCNCC2)Cc2cccc(Cl)c2)[nH]1 [ASAP-0000416]
4. O=C(c1cncc(O)n1)N1CCC(c2ccn3ncc(C(=O)N4CCCCC4)c3c2)CC1 [ASAP-0000382]
5. C[C@@H](NC(=O)c1ncnc2[nH]ccc12)c1ncc(C(=O)O)c(=O)[nH]1 [ASAP-0000460]
6. COc1ccccc1C[C@@H](Nc1ncnc2[nH]ccc12)C(C)C [ASAP-0000467]

1: 0.465%; 2: -4.664%; 3: -3.936%; 4: 41.906%; 5: 10.734%; 6: 48.499%

FYI, the data here is from paper doi:10.1101/2024.08.19.608619.
